Can you tell me MIC for the items I'm about to list?

Readout MIC for CCN1CCN(C(=O)NC(C(=O)N[C@H]2Cc3cccc(C(=O)O)c3OB2O)c2ccc(O)cc2OC)C(=O)C1=O (stereo partly drawn) , test system K. pneumoniae UMM producing SHV-5 and KPC-2, was > 128 µg/mL

Readout MIC for CCN1CCN(C(=O)NC(C(=O)N[C@H]2Cc3cccc(C(=O)O)c3OB2O)c2cc(F)c(O)cc2Cl)C(=O)C1=O (stereo partly drawn) , test system K. pneumoniae UMM producing SHV-5 and KPC-2, was 32 to 64 µg/mL

Readout MIC for CCN1CCN(C(=O)N[C@H](C(=O)N[C@H]2Cc3cccc(C(=O)O)c3OB2O)c2cc(Cl)c(O)cc2Cl)C(=O)C1=O (single isomer, unassigned) , test system K. pneumoniae UMM producing SHV-5 and KPC-2, was > 128 µg/mL

Readout MIC for CCN1CCN(C(=O)NC(C(=O)N[C@H]2Cc3cccc(C(=O)O)c3OB2O)c2ccc(O)c(F)c2F)C(=O)C1=O (stereo partly drawn) , test system K. pneumoniae UMM producing SHV-5 and KPC-2, was 32 to 64 µg/mL

Readout MIC for CCN1CCN(C(=O)NC(C(=O)N[C@H]2Cc3cccc(C(=O)O)c3OB2O)c2ccc(O)cc2O)C(=O)C1=O (stereo partly drawn) , test system K. pneumoniae UMM producing SHV-5 and KPC-2, was 32 to 64 µg/mL

Readout MIC for CCN1CCN(C(=O)NC(C(=O)N[C@H]2Cc3cccc(C(=O)O)c3OB2O)c2cc(Cl)c(C(=O)O)cc2F)C(=O)C1=O (stereo partly drawn) , test system K. pneumoniae UMM producing SHV-5 and KPC-2, was 32 to 64 µg/mL
